B1: ZNF511 (parent)
chain: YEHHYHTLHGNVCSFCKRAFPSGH

Variants of: B1
Experiment: protein stability index of a GFP-peptide fusion (GPS, HEK-293T) (PSI 1-6); higher = more stable;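 further: lentivirally expressed fusions sorted by FACS into six bins by GFP to DsRed ratio, PSI derived from sequencing read proportions per bin multiplied by bin number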
Details: c terminus: a fixed tail appended
result.type: protein stability index
Form rule: numeric answer, no unit written next to it.

Please review the following examples before continuing.
Field protein stability index (entry C16P ) reads 2.02

Field protein stability index (entry S22K ) reads 1.8

Field protein stability index (entry R18K ) reads 2.23

Field protein stability index (entry L8D ) reads 2.57

New cases:
Field protein stability index (entry S22M ) reads 2.89

Field protein stability index (entry F20D ) reads 3.27

Field protein stability index (entry P21D ) reads 2.88

Field protein stability index (entry H4G ) reads 2.05

Field protein stability index (entry G10Q ) reads 1.78

Field protein stability index (entry H9V ) reads 2.57

Field protein stability index (entry Y5S ) reads 3.01

Field protein stability index (entry Y1M ) reads 2.63

Field protein stability index (entry N11R ) reads 2.62

Field protein stability index (entry S14W ) reads 2.53

Field protein stability index (entry H9W ) reads 1.83

Field protein stability index (entry C13S ) reads 2.22

Field protein stability index (entry F15H ) reads 2.39

Field protein stability index (entry A19E ) reads 2.13

Where do these numbers come from? They come from the supplement of paper PMC10567573.
